Tested on: SK-MEL-5 melanoma
Assay: NCI tumour cell line growth inhibition, 48 h
Each item that follows carries a reported TGI.

{"compound": "O=C(N=C1N(c2ccccc2)C(=O)C(=O)N1c1ccccc1)c1ccccc1", "experimental-system": "SK-MEL-5 melanoma", "measure-unit": "µM", "result-comparator": "=", "TGI": 32}
{"compound": "COc1ccc(C2C=C(c3ccccc3)Nc3nnnn32)cc1 (stereo unspecified)", "experimental-system": "SK-MEL-5 melanoma", "measure-unit": "µM", "result-comparator": ">", "TGI": 100}
{"compound": "CC(=O)SSC1(Cl)C(C)(C)C(Cl)(SSC(C)=O)C1(C)C (stereo unspecified)", "experimental-system": "SK-MEL-5 melanoma", "measure-unit": "µM", "result-comparator": ">", "TGI": 100}
{"compound": "CC(=O)c1cc2c(c(O)c1C)C(=O)C(=O)c1c(O)cccc1-2", "experimental-system": "SK-MEL-5 melanoma", "measure-unit": "µM", "result-comparator": "=", "TGI": 0.105}
{"compound": "COC1CC(C)(N)C(O)C(C)O1 (stereo unspecified)", "experimental-system": "SK-MEL-5 melanoma", "measure-unit": "µM", "result-comparator": ">", "TGI": 100}
{"compound": "C[C@@H](O)[C@H]1C(=O)N2C(C(=O)O)=C(SCCN=CN)C[C@H]12", "experimental-system": "SK-MEL-5 melanoma", "measure-unit": "µM", "result-comparator": "=", "TGI": 2.93}
{"compound": "c1ccc([P+](CCN2Cc3ccccc3C2)(c2ccccc2)c2ccccc2)cc1", "experimental-system": "SK-MEL-5 melanoma", "measure-unit": "µM", "result-comparator": "=", "TGI": 11.3}
{"compound": "O=c1[nH]c(=S)[nH]c2c1C(c1ccc(Cl)cc1)c1c([nH]c(=S)[nH]c1=O)O2", "experimental-system": "SK-MEL-5 melanoma", "measure-unit": "µM", "result-comparator": ">", "TGI": 100}
{"compound": "Cc1noc(C)c1C1=CCCCc2ccccc21", "experimental-system": "SK-MEL-5 melanoma", "measure-unit": "µM", "result-comparator": ">", "TGI": 100}
{"compound": "FC(F)(F)C1(Cl)C(Cl)(c2ccccc2)C1(Cl)c1ccccc1 (stereo unspecified)", "experimental-system": "SK-MEL-5 melanoma", "measure-unit": "µM", "result-comparator": "=", "TGI": 26.9}
{"compound": "c1cc(-c2ccsc2-c2ccsc2)cs1", "experimental-system": "SK-MEL-5 melanoma", "measure-unit": "µM", "result-comparator": ">", "TGI": 100}
